// provenance: paper PMC10053003

- protocol: Pharmacokinetic study in rats after oral administration
- Assay type: in vivo, Sprague-Dawley rats
- study_conditions: Sprague-Dawley, rat, plasma; oral 5 mg/kg, male rats

molecule: CN1CCN(c2ccc(OC(F)(F)F)c(Nc3nccc(-c4cc5c(=O)[nH]ccc5n4C)n3)c2)CC1 [compound 7a]
Tmax: 3 h

###

- protocol: Pharmacokinetic study in rats after oral administration
- Type: in vivo, Sprague-Dawley rats
- study_conditions: Sprague-Dawley, rat, plasma; oral 5 mg/kg, female rats
- Procedure: Sprague-Dawley rats (8 weeks old, 180–220 g) were provided by Pengyue Laboratory Animal Technology Co., Ltd (Jinan, Shandong, China). All rats were fed adaptively for 1 week (20 °C–24 °C, 50%–70% relative humidity, 12/12 h light/dark cycle). A standard diet and boiled water were provided. The rats fasted for over 12h with free access to water before the study. […] The main pharmacokinetic parameters were calculated using Phoenix WinNonlin 7.0 via a non-compartmental model (Pharsight, Mountain View, CA). […]

smiles_code: CN1CCN(c2ccc(OC(F)(F)F)c(Nc3nccc(-c4cc5c(=O)[nH]ccc5n4C)n3)c2)CC1
half-life / h: 4.6

###

- protocol: Pharmacokinetic study in rats after oral administration
- Type: in vivo, Sprague-Dawley rats
- study_conditions: Sprague-Dawley, rat, plasma; oral 5 mg/kg, female rats; read-out: F

smiles_code: CN1CCN(c2ccc(OC(F)(F)F)c(Nc3nccc(-c4cc5c(=O)[nH]ccc5n4C)n3)c2)CC1
reading_unit: %
bioavailability: 19.9

###

- protocol: Pharmacokinetic study in rats after oral administration
- Assay type: in vivo, Sprague-Dawley rats
- study_conditions: both sexes, Sprague-Dawley, rat, plasma; oral 5 mg/kg, mean of male and female rats

smiles_code: CN1CCN(c2ccc(OC(F)(F)F)c(Nc3nccc(-c4cc5c(=O)[nH]ccc5n4C)n3)c2)CC1
half-life, h: 4.5

###

- target_system: PLK1 kinase (Homo sapiens)
- Construct: purchased CarnaBio 05–157
- Sequence (P53350 whole entry): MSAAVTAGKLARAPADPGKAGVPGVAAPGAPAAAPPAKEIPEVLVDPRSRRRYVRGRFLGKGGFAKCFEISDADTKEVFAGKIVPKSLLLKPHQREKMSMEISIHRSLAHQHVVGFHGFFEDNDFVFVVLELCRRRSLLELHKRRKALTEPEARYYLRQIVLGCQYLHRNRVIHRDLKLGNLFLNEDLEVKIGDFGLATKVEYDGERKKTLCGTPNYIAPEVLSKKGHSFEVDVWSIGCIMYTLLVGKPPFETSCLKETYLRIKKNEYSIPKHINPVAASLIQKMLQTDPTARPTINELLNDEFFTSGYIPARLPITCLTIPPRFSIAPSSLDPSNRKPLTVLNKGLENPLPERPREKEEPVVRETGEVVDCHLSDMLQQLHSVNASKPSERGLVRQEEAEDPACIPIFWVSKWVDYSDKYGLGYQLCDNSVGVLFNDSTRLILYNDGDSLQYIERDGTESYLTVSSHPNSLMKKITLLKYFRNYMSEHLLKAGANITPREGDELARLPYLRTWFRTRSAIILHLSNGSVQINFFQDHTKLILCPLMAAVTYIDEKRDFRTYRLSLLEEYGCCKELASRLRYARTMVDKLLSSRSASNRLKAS
- protocol: PLK1 kinase inhibition activity
- Assay type: biochemical
assay_metric: IC50 (nM)

smiles_code: CN1CCN(c2ccc(OC(F)(F)F)c(Nc3nccc(-c4cc5c(=O)[nH]ccc5n4C)n3)c2)CC1
assay_metric: IC50
reading_unit: nM
numeric_readout: 0.89

###

- protocol: Pharmacokinetics in rats after intravenous administration
- Type: in vivo
- study_conditions: Sprague-Dawley, rat, plasma, i.v. 1 mg/kg
- Procedure: The pharmacokinetic characteristics of 7a were then evaluated successfully with the validated UHPLC-MS/MS method. […] The AUC0–24h was about 517 and 3192 h × nmol/L at the doses of 5 and 30 mg/kg, respectively. The tmax was approximately 2 h, and t1/2 was 5 h. In the dose range of 5–30 mg/kg, the pharmacokinetics of 7a were almost linear. […] The main pharmacokinetic parameters were calculated using Phoenix WinNonlin 7.0 via a non-compartmental model (Pharsight, Mountain View, CA). […]

compound: CN1CCN(c2ccc(OC(F)(F)F)c(Nc3nccc(-c4cc5c(=O)[nH]ccc5n4C)n3)c2)CC1 [compound 7a]
half-life: 2.4 h

###

- protocol: Pharmacokinetic study in rats after oral administration
- Assay type: in vivo, Sprague-Dawley rats
- study_conditions: both sexes, Sprague-Dawley, rat, plasma, po; rats, overall statement; read-out: oral bioavailability (F)

compound: CN1CCN(c2ccc(OC(F)(F)F)c(Nc3nccc(-c4cc5c(=O)[nH]ccc5n4C)n3)c2)CC1 [compound 7a]
bioavailability: ~22%
